The values you see were collected from PubChem BioAssay (NCI).

Parameter: growth inhibition. Scope: all listed entries.
assay: NCI Yeast Anticancer Drug Screen. Data for the rad50 strain (AID 155);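 also: 0% = growth of vehicle-only cultures of the same strain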; details: S. cerevisiae rad50 strain growth inhibition; at 50.0 µM; active compounds read high
About 79,000 compounds went through this panel and 15% of them were active in at least one assay; those are over-represented in the sample as a whole.
valueKind: growth inhibition (%)

compound=NC(=O)/N=N/C(N)=O measuredresult=10.8
compound="CCCC(=O)OC(CCC1CCCO1)CCC1CCCO1 (stereo not given)" measuredresult=0.3
compound=O=C1C=C(Nc2nc(O)cc(=O)[nH]2)c2ccccc2C1=O measuredresult=0.75
compound=CCOC(=O)c1ccc(NC(=S)NC(=O)c2cccc([N+](=O)[O-])c2)cc1 measuredresult=-3.15
compound="CC1=C(C)C(N(C)C)CS(=O)(=O)O1 (stereo not given)" measuredresult=6.35
compound=Cn1c(=N)n(CC(=O)NC23CC4CC(CC(C4)C2)C3)c2ccccc21 measuredresult=11.8
compound=O=C(O)COc1ccccc1OCC(=O)O measuredresult=17.4
compound=O=C1NC(=O)/C(=C\c2cccc(Br)c2)N1 measuredresult=-7.95
compound=Cn1c(=O)c2ccccc2c2cc([N+](=O)[O-])ccc21 measuredresult=-11.8
compound=CC/C(=N/N(C)C)C(=O)OC(C)(C)C measuredresult=-42.9

* * *

test: NCI Yeast Anticancer Drug Screen. Data for the mec2-1 strain (AID 157); conditions: S. cerevisiae mec2-1 strain, at 50.0 µM, active compounds read high
Compounds without any hit were thinned out: in the full panel of roughly 79,000, 15% have a hit.
Parameter growth inhibition: see the listing below.
valueKind: growth inhibition (%)

molecule="CCN1OCC(C)(C(=O)OC)C1C (stereo not drawn)" measuredresult=-13.1
molecule=OC1CC=CC1 measuredresult=-3.5
molecule=COc1cccc(/C(C#N)=C\O)c1 measuredresult=-36.9
molecule=Cc1ccc(/C=C2/NC(=S)SC2=O)cc1 measuredresult=-3.6
molecule=COc1ccc(/C=N/Nc2nc3ccccc3c(=O)n2-c2ccccc2)c(OCc2ccccc2)c1 measuredresult=5.2
molecule=COc1cc(/C=C2\C(=O)N(C(=O)c3ccc(NC(C)=O)cc3)N=C2C)ccc1O measuredresult=-41.1
molecule=CCOC(=O)CCCN(c1ccc(OC)c(OC)c1)S(=O)(=O)c1ccc(C)cc1 measuredresult=12.7
molecule="OC(CCCN1CCN2CCc3[nH]c4ccccc4c3C2C1)c1ccc(F)cc1 (stereo not drawn)" measuredresult=-1.8
molecule="Cc1ccc(NC(=O)C2C3CC4OC(=O)C2C4C3)cc1 (stereo not drawn)" measuredresult=-4.45
molecule=C=CC(=O)NC1CCCCC1 measuredresult=-10.9
molecule=O=C(Nc1ccc(CCc2ccc(NC(=O)C34CC5CC(CC(C5)C3)C4)cc2)cc1)C12CC3CC(CC(C3)C1)C2 measuredresult=-6.55
molecule="C/C=C/C=N/N(C(=O)c1cc([N+](=O)[O-])cc([N+](=O)[O-])c1)C1=NC(c2ccccc2)C(c2ccccc2)=NN1 (stereo not drawn)" measuredresult=24.4
molecule="CC1CC[C@]2(C(=O)O)CCC3(COC(=O)/C=C\\c4ccc(O)cc4)C(=CCC4[C@@]5(C)CC[C@H](O)C(C)(C)C5CC[C@]43C)[C@@H]2[C@H]1C (stereo partly drawn)" measuredresult=1.35
molecule=Cc1cc(O)c(C(c2cccnc2)c2c(O)cc(C)[nH]c2=O)c(=O)[nH]1 measuredresult=-14.8
molecule=CN(C(=N)N)c1ccc(C(=O)Oc2ccc([N+](=O)[O-])cc2)cc1 measuredresult=12.8
molecule=CCCCOC(=O)c1ccc(OC(=O)Nc2ccccc2)cc1 measuredresult=6
molecule="CC(=O)OC1CCC2C(C)(CCC3C2(C)CCC2(C)C4CC(C)(C)CCC4(C)CCC32C)C1C (stereo not drawn)" measuredresult=-6.25
molecule="CC(C)C(NC(=O)CI)C(=O)Nc1ccc(C(=O)O)c(O)c1 (stereo not drawn)" measuredresult=20.5
molecule=COc1c(F)c(F)c(/C(O)=C\c2nc3ccccc3[nH]c2=O)c(F)c1F measuredresult=-22.9
molecule=O=[N+]([O-])c1ccc(O)c(C=NCCCN=Cc2cc([N+](=O)[O-])ccc2O)c1 measuredresult=7.95
molecule=O=C(O)c1c(Br)c(Br)c(Br)c(Br)c1C(=O)Nc1cc([N+](=O)[O-])ccc1O measuredresult=-8.45
molecule=CC(=O)NCCC(=O)NCCSC(C)=O measuredresult=-12
molecule="CC(CNC(N)=O)NC(N)=O (stereo not drawn)" measuredresult=-15.8
molecule=NC(=O)c1ccc(=S)[nH]c1 measuredresult=-12.7
molecule=CCOC(=O)c1c(C)c(C)cc(C)c1C measuredresult=-7.6
molecule="O=C(O)C1CCCCC1C(=O)Nc1nc2ccccc2[nH]1 (stereo not drawn)" measuredresult=-17.1
molecule=NC(=O)C(C(N)=O)c1ccnc2ccccc12 measuredresult=-2.65
molecule=Cc1ccccc1/C=N/NC(=O)c1cccc2ccccc12 measuredresult=0.8
molecule="O=C(NCC(=O)N1CCCC1C(=O)OC(=O)C1CCCN1C(=O)CNC(=O)OCc1ccccc1)OCc1ccccc1 (stereo not drawn)" measuredresult=1.2
molecule="COC(=O)C1CCC(=O)N1C(c1ccc(OC)cc1)c1ccc2c(c1)OCO2 (stereo not drawn)" measuredresult=20.9
molecule=CC(=O)c1cccc(NC(=O)Nc2cccc(O)c2)c1 measuredresult=19.9
molecule="O=C1OC(=O)C2CCC12 (stereo not drawn)" measuredresult=-9.5
molecule=CC(C)(C)OC(=O)N/N=C(/N)Cc1ccccc1 measuredresult=-3.65
molecule=CCCCN(CC)CCNc1cc(C)nc(/N=C(\N)Nc2ccc(Cl)c(Cl)c2)n1 measuredresult=85
molecule=Cc1cccnc1NC=O measuredresult=-12.2
molecule=CCOC(=O)c1ccc(NCCCc2c(C)nc(N)[nH]c2=O)cc1 measuredresult=9.5
molecule=CSc1nc2c(N)ncnc2n1C measuredresult=1.4
molecule="CC(C)=CCS(=O)c1ccccc1NC1=CC(=O)CC(C)(C)C1 (stereo not drawn)" measuredresult=-26.1
